Hey, just so you know, these numbers are from ChEMBL document CHEMBL1145512.

# Assayed Target: Lysosomal acid glucosylceramidase (Homo sapiens)
# Sequence (P04062 whole entry): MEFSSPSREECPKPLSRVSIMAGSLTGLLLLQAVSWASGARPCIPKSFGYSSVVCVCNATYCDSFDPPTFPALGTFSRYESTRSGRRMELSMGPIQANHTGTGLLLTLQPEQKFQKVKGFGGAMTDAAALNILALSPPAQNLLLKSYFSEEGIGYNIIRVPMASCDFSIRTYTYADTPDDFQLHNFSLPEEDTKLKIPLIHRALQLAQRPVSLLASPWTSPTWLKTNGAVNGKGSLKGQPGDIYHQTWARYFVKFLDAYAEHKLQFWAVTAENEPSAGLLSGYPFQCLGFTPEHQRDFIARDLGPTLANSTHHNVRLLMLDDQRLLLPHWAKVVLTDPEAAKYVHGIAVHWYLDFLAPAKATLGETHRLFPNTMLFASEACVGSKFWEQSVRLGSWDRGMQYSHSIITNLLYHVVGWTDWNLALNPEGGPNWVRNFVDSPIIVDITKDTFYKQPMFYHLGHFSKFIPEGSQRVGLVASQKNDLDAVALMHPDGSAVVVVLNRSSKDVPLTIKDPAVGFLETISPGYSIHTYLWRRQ
# Experimental Details: Inhibition of recombinant wild-type glucocerebrosidase
pIC50: −log10 of the molar value.
Category key, based on recorded pIC50: band A (below 5), band B (5 to below 6), band C (6 or more)

O=C(Nc1ccccc1)c1ccc(NS(=O)(=O)c2ccccc2)cc1; band B
CN(c1ccc(C(=O)Nc2cccs2)cc1)S(=O)(=O)c1ccccc1; band A
Cc1cc(N2CCOCC2)nc2ccc(NC(=O)C3CCC(C)CC3)cc12 (centres undefined); band C
Cc1cccc(Nc2nc(NCCO)nc(N3CCOCC3)n2)c1; band A
Cc1cc(N2CCOCC2)nc2ccc(NC(=O)C3CC3)cc12; band C
Cc1ccc(S(=O)(=O)Nc2ccc(C(=O)Nc3cc(C)on3)cc2)cc1; band C
Cc1cc(NC(=O)c2ccc(N(C)S(=O)(=O)c3ccccc3)cc2)no1; band A
OCCNc1nc(Nc2ccc(Cl)cc2)nc(N2CCOCC2)n1; band A

Request: Could you place Cc1cc(N2CCN(c3ncccn3)CC2)nc2ccc(NC(=O)C3CCC(C)CC3)cc12 (centres undefined) in its proper category? Many thanks.
Response: band B

Request: Lab note: sort `Cc1cccc(Nc2nc(NCCO)nc(N3CCCC3)n2)c1` into the matching pIC50 band.
Response: band B

Request: GET /class?item= `CCCCNC(=O)c1ccc(NS(=O)(=O)c2ccccc2)cc1`
Response: band A

====

# Assayed Target: UniProt:P04062
# Sequence (P04062 whole entry): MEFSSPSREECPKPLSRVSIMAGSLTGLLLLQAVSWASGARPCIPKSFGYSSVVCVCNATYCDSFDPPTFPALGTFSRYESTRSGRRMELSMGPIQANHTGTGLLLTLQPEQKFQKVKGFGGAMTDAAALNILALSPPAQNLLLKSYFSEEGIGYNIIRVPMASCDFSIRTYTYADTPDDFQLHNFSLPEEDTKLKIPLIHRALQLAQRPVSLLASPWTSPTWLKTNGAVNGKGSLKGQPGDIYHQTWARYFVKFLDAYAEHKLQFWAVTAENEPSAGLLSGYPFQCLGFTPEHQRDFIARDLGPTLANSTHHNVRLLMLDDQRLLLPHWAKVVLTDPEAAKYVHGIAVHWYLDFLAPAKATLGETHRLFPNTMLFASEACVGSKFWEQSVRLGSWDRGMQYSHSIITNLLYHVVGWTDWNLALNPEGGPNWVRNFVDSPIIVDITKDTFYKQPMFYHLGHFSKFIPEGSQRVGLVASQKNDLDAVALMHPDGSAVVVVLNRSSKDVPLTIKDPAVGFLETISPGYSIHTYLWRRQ
# Experimental Details: Inhibition of recombinant wild-type glucocerebrosidase
Reported values of pKi for individual entries
Scale for pKi: -log10 of concentration given in mol/L; no unit attached.

Below, 2 compounds whose answers are already recorded.
O=C(Nc1cccs1)c1ccc(NS(=O)(=O)c2ccc(Cl)cc2)cc1; 6.25
Cc1cc(N2CCCCC2)nc2ccc(NC(=O)C3CCC(C)CC3)cc12 (stereo unspecified); 6.74

Request: Answer with the recorded pKi of `Cc1cc(NC(=O)c2ccc(N(C)S(=O)(=O)c3ccccc3)cc2)no1` only.
Response: 4.72

Request: Specify pKi for Cc1cc(N2CCN(c3ncccn3)CC2)nc2ccc(NC(=O)C3CCC(C)CC3)cc12 (stereo unspecified) and stop.
Response: 6.01

Request: Name the recorded pKi of the compound listed here: `OCCNc1nc(Nc2ccc(Cl)cc2)nc(N2CCCC2)n1`
Response: 5.37

Request: Retrieve pKi measured for `Cc1cc(N2CCOCC2)nc2ccc(NC(=O)C3CC3)cc12` and print it.
Response: 6.92

====

# Experimental Details: Inhibition of rice alpha-glucosidase
# Parameters: species or system Oryza sativa
Property: IC50 (nM)
Return type: number; implicit unit nM.

Request: Provide one value: measured IC50 of `CCCCCCCCCN1C[C@H](O)[C@@H](O)[C@H](O)[C@H]1CO`
Response: 50

====

# Assayed Target: Lysosomal acid glucosylceramidase (Homo sapiens)
# Experimental Details: Effect on recombinant wild-type glucocerebrosidase
// reported AC50 per item
Give your result in µM as a bare value.

// below: answered compounds
Cc1ccc(S(=O)(=O)Nc2ccc(C(=O)Nc3cc(C)on3)cc2)cc1; 0.155
Cc1cc(N2CCOCC2)nc2ccc(NC(=O)C3CCC(C)CC3)cc12 (centres undefined); 0.069
C=CCNc1nc(NCCO)nc(N2CCCC2)n1; 39.9

Request: Check Lysosomal acid glucosylceramidase (Homo sapiens) data and give AC50 for `Cc1cc(NC(=O)c2ccc(N(C)S(=O)(=O)c3ccccc3)cc2)no1` .
Response: 15.4

====

# Assayed Target: Lysosomal acid glucosylceramidase (Homo sapiens, UniProt P04062)
# Experimental Details: Inhibition of recombinant wild-type glucocerebrosidase
Just a reminder that ties go to NOT MET: only Ki strictly below 7000 nM counts as MET.

Cc1cc(N2CCC(C)CC2)nc2ccc(NC(=O)C3CCC(C)CC3)cc12 (stereo unspecified); MET

Request: State whether 7000 nM exceeds Ki recorded for `Cc1ccc(S(=O)(=O)Nc2ccc(C(=O)Nc3cc(C)on3)cc2)cc1` .
Response: MET

Request: Please let me know if `CN(c1ccc(C(=O)Nc2cccs2)cc1)S(=O)(=O)c1ccccc1` shows Ki below 7000 nM.
Response: NOT MET

====

# Assayed Target: Lysosomal acid glucosylceramidase (Homo sapiens)
# Sequence (P04062 whole entry): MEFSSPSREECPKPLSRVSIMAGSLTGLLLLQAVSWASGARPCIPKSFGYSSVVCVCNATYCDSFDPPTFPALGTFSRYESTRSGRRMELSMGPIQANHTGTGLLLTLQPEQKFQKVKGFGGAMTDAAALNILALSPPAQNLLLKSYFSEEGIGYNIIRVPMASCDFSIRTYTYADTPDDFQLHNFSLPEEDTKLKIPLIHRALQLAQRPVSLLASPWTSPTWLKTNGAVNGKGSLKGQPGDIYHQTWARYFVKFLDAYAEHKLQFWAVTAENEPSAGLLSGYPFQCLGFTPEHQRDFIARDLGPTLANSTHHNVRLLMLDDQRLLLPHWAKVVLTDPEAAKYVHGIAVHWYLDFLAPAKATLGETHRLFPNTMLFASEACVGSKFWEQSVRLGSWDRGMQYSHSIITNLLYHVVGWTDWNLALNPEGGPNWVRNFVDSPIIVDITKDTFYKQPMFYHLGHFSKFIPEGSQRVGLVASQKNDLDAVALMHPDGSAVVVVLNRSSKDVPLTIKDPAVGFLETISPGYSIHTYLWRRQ
# Experimental Details: Inhibition of recombinant wild-type glucocerebrosidase
Reported pIC50 values for the following compounds.
Hey, just a heads up that pIC50 is the negative log base 10 of the concentration in molar.

Cc1cc(N2CCCCC2)nc2ccc(NC(=O)C3CCC(C)CC3)cc12 (stereo not drawn); 6.34
OCCNc1nc(Nc2ccc(Cl)cc2)nc(N2CCCC2)n1; 5.11
CCCC1CCC(C(=O)Nc2ccc3nc(N4CCOCC4)cc(C)c3c2)CC1 (stereo not drawn); 6.88
CCN(CC)c1cc(C)c2cc(NC(=O)C3CCC(C)CC3)ccc2n1 (stereo not drawn); 5.97
Cc1cc(N2CCC(C)CC2)nc2ccc(NC(=O)C3CCC(C)CC3)cc12 (stereo not drawn); 6.57

Request: Please list pIC50 recorded for the compound `O=C(Nc1cccs1)c1ccc(NS(=O)(=O)c2ccc(Cl)cc2)cc1`
Response: 5.89

Request: Fill in pIC50 for record O[C@H]1[C@H](O)[C@@H](O)C2OC2[C@@H]1O (stereo partly drawn)
Response: 4.78

====

# Assayed Target: Lysosomal acid glucosylceramidase (Homo sapiens)
# Experimental Details: Inhibition of recombinant wild-type glucocerebrosidase
pKi: −log10 of the molar value.
Note to self: values exactly at 6 are fulfilled. So pKi at or above 6 is fulfilled, below is not fulfilled.

Please review the following examples before continuing.
Cc1cccc(Nc2nc(NCCO)nc(N3CCCC3)n2)c1; not fulfilled
Cc1cc(N2CCOCC2)nc2ccc(NC(=O)C3CCC(C)CC3)cc12 (stereo not drawn); fulfilled
O=C(NCc1ccccc1)c1ccc(NS(=O)(=O)c2ccccc2)cc1; not fulfilled
CCN(CC)c1cc(C)c2cc(NC(=O)C3CCC(C)CC3)ccc2n1 (stereo not drawn); fulfilled
CCCCNC(=O)c1ccc(NS(=O)(=O)c2ccccc2)cc1; not fulfilled
O=C(Nc1ccccc1)c1ccc(NS(=O)(=O)c2ccccc2)cc1; not fulfilled

Request: Does CCCC1CCC(C(=O)Nc2ccc3nc(N4CCOCC4)cc(C)c3c2)CC1 (stereo not drawn) have a reported pKi of at least 6?
Response: fulfilled

Request: Assess whether reported pKi for Cc1cc(Nc2cccc(Cl)c2)nc2ccc(NC(=O)C3CCC(C)CC3)cc12 (stereo not drawn) sits at 6 or higher.
Response: not fulfilled
